# system_under_test: Gal(b1-4)GlcNAc(b1-3)Gal(b1-4)GlcNAc(b1-3)Gal(b1-4)GlcNAc(b1-3)Gal(b1-4)GlcNAc(b1-3)Gal(b1-4)GlcNAc(b1-2)Man(a1-3)[Gal(b1-4)GlcNAc(b1-3)Gal(b1-4)GlcNAc(b1-3)Gal(b1-4)GlcNAc(b1-3)Gal(b1-4)GlcNAc(b1-3)Gal(b1-4)GlcNAc(b1-2)Man(a1-6)]Man(b1-4)GlcNAc(b1-4)GlcNAc
# run_description: glycan array binding signal (z-score within array); higher = stronger binding
# test_settings: glycan notation: IUPAC condensed, linker removed
Many of the other results were omitted from the sample, so the strongest signals are more common in it than they were.
Please provide measured glycan array binding signal (z-score) for the entries that follow.
Numbers only.

Tell me the measured glycan array binding signal (z-score) of rCnSL-A (Clitocybe nebularis) (protein) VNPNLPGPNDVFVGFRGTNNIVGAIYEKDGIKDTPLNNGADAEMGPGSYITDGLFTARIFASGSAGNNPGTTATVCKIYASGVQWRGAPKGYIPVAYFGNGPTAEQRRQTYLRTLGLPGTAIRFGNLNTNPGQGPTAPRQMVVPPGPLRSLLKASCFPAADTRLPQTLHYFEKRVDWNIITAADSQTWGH , please.
2.36

Tell me the measured glycan array binding signal (z-score) of MGL1 (Mus musculus), P49300 (protein) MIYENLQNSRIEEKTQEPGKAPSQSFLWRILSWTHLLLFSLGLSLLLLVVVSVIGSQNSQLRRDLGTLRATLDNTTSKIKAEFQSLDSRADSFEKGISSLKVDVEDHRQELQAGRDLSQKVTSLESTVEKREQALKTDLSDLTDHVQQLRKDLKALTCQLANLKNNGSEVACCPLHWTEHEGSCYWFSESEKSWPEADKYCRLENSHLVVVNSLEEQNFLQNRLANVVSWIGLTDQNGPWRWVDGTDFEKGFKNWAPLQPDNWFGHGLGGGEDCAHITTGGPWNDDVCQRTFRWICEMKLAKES , please.
2.31

Tell me the measured glycan array binding signal (z-score) of SP15308B-bot-339-22-339 (Bacteroides ovatus) (protein) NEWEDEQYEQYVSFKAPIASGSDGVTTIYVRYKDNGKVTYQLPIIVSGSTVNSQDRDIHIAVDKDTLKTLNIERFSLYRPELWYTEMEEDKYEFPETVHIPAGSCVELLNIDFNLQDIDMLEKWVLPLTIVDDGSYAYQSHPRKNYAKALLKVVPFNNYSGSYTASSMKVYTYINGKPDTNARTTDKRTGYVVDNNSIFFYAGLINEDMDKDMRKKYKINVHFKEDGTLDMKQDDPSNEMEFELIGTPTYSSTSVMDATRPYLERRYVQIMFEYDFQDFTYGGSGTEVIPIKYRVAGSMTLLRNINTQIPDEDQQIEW , please.
1.84

Tell me the measured glycan array binding signal (z-score) of MUB70 (Lactobacillus reuteri) (protein) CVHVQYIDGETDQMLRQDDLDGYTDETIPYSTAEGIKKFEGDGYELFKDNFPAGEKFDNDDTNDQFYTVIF , please.
0.479

Tell me the measured glycan array binding signal (z-score) of Clec18A (Homo sapiens) (protein) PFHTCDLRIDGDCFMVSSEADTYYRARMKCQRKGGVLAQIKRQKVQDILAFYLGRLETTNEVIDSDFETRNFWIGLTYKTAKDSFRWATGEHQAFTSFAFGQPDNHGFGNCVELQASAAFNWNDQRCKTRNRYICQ , please.
0.263

More entries:
Tell me the measured glycan array binding signal (z-score) of Gal 10 (Homo sapiens), Q05315 (protein) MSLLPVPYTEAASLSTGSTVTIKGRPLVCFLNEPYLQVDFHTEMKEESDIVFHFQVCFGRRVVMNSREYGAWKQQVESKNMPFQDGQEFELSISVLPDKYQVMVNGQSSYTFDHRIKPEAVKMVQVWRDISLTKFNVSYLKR , please.
3.23
